target: 5-hydroxytryptamine receptor 7 (Rattus norvegicus); test: Agonistic activity against rat 5-HT7 adenyl cyclase expressed by HEK293 cells; assay type: functional, cell-based
Sequence (P32305 whole entry): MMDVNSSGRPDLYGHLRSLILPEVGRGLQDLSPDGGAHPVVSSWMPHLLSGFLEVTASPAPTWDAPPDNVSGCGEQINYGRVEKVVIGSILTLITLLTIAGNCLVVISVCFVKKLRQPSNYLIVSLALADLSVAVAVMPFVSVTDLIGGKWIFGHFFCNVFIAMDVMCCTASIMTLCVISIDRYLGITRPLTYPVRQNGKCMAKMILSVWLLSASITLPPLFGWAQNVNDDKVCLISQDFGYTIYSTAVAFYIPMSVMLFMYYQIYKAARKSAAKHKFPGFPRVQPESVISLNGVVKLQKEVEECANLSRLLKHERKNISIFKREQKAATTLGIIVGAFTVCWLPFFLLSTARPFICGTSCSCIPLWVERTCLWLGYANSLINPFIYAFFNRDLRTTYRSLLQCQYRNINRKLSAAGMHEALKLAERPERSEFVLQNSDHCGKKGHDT
For each of the molecules below, state its Increase.
Give bare numbers, in %.

Study these solved cases before continuing.
CCCN(CCC)[C@@H]1CCc2cccc(OC)c2C1    92
COc1cccc2c1C[C@H](N)CC2    73

Let us move to another entry and its Increase.
Incoming: I would be grateful if you could share the reported Increase for COc1ccc2[nH]cc(CCN3CCCC3)c2c1 .
Outgoing: 39

---

target: 5-hydroxytryptamine receptor 7 (Rattus norvegicus) (UniProt P32305); assay: Agonistic activity against rat 5-HT7 adenyl cyclase expressed by HEK293 cells; type: functional, cell-based
Sequence (P32305 whole entry): as above
I'd appreciate it if you could supply Increase values for the items below.
Answers are plain numbers, in %.

COc1ccc2c(c1)CC[C@@H](N)C2    58

The following compounds each have a reported value; give each one's Increase.
1. COc1ccc2cccc(N3CCNCC3)c2c1
2. COc1ccc2[nH]c(C)c(CCN(C)C)c2c1
3. COc1ccc2[nH]cc(CCN(C)C)c2c1 [MEBUFOTENIN]
4. NCCc1c[nH]c2ccc(C(N)=O)cc12
5. CCN(CC)[C@@H]1CCc2cccc(OC)c2C1
6. CCCN(CCC)[C@H]1CCc2cccc(OC)c2C1

Outgoing:
[25, 17, 92, 100, 73, 99]

---

Measurement record for 5-hydroxytryptamine receptor 7 (Rattus norvegicus, UniProt P32305); quantity recorded: log10 Ki.
Annotation: log10 of Ki, nM basis.

CN(C)[C@H]1CCc2c(cccc2-c2cccc3ccccc23)C1    -0.60
COc1ccc2[nH]cc(CCN3CCCC3)c2c1    2.80
CCCN(CCC)[C@@H]1CCc2cccc(OC)c2C1    1.53
CCN(CC)[C@@H]1CCc2cccc(OC)c2C1    1.94
COc1ccc2cccc(N3CCNCC3)c2c1    1.31

List reported log10 Ki for each of these molecules:
1. COc1ccc2[nH]c(C)c(CCN(C)C)c2c1
2. CCCN(CCC)[C@H]1CCc2cccc(OC)c2C1
3. COc1ccc2c(c1)CC[C@@H](N)C2
4. Cc1[nH]c(C)c(-c2cccc3c2CC[C@H](N(C)C)C3)c1C
5. COc1cccc2c1C[C@H](N)CC2
6. COc1ccc2[nH]cc(CCN(C)C)c2c1 [MEBUFOTENIN]
7. CCCN(CCC)[C@@H]1CCc2cccc(O)c2C1

Outgoing:
1: 3.05; 2: 2.53; 3: 3.20; 4: -0.08; 5: 2.09; 6: 1.60; 7: 1.66

Incoming: Field request: log10 Ki | item: CN(C)CCc1c[nH]c2ccc(O)cc12 [BUFOTENINE]
Outgoing: 0.90

All values here come from ChEMBL document CHEMBL1144906.
